Each entry below carries its recorded pEC50.
Biological target: T1, B7-H4ECD his-tagged protein (Sinobiologics) (human, UniProt Q7Z7D3 25-259)
T1 construct: Bought protein; Result paragraph calls the target human B7-H4; also called B7-H4 extracellular domain; not shown: his tag
T1 sequence: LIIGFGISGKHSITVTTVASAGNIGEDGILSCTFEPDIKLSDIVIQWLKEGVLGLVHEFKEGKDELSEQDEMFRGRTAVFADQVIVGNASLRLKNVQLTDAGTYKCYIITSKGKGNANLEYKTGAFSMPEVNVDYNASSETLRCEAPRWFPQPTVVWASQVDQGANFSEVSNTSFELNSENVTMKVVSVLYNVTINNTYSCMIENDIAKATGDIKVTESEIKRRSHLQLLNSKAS
Assay: ELISA, B7-H4ECD his-tagged protein coated
Remember, pEC50 is on a log scale: it is -log10 of the molar concentration.

• humanized 6H3 variant 2 (antibody, V domains shown, also called V2; 6H3 V2) VH: EVQLVQSGAEVKKPGASVKVSCKASGYTFTDYYMNWVRQAPGQGLEWIGIINPYNGDTSYNQKFKGRVTLTVDKSTSTAYMELSSLRSEDTAVYYCARYPESTYWGQGTLVTVSS VL: DVVMTQSPLSLPVTLGQPASISCRSSQSLVHINGNTYLHWYQQRPGQSPRVLIYKVSNRFSGVPDRFSGSGSGTDFTLKISRVEAEDVGVYFCSQSTHVPLTFGGGTKVEIK = 9.29
• humanized 6H3 variant 14 (antibody, V domains shown, also called V14; 6H3 V14) VH: EVQLVQSGAEMKKPGASVKVSCKASGYTFTDYYMNWVRQAPGQSLEWIGVINPYNGDTTYNQKFQGRVTVTVDKSATTAYMELSSLRSEDTAVYYCARYPESTYWGQGTLVTVSS VL: DIVMTQTPLSLPVTLGQPASISCRSSQSLVHINGNTYLHWYLQRPGQSPKVLIYKVSNRFSGVPDRFSGSGSGTDFTLKISRVEAEDVGVYFCSQSTHVPLTFGAGTKVEIK = 9.17
• humanized 6H3 variant 13 (antibody, V domains shown, also called V13; H2B L2C) VH: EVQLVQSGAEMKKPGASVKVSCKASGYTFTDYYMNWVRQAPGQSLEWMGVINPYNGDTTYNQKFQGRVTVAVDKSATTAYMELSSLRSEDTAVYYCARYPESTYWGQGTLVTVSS VL: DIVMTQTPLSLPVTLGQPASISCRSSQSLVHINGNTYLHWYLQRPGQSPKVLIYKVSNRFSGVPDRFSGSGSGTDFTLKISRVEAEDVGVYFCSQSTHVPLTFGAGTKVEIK = 9.04
• humanized 6H3 variant 10 (antibody, V domains shown, also called V10; H2B L2B) VH: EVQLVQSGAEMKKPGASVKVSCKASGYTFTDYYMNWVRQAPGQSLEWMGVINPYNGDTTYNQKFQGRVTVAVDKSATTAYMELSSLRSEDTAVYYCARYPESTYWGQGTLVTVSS VL: DIVMTQTPLSLPVTLGQPASISCRSSQSLVHINGNTYLHWYQQRPGQSPRVLIYKVSNRFSGVPDRFSGSGSGTDFTLKISRVEAEDVGVYFCSQSTHVPLTFGQGTKVEIK = 9.05

Next binder, pEC50 to be filled in.
The recorded pEC50 for entry humanized 6H3 variant 7 (antibody, V domains shown, also called V7; 6H3 V7) VH: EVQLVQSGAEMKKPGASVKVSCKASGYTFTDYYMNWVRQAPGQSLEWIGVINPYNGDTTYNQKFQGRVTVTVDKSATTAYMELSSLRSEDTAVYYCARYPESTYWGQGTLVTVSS VL: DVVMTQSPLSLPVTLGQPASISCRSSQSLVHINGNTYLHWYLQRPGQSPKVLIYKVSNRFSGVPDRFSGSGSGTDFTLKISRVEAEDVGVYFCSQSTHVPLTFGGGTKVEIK equals 8.97
